# experimental.system: hTLR8 (Homo sapiens, UniProt Q9NR97)
# Construct: host or cells: HEK293 cells stably transfected with hTLR8
# Sequence (Q9NR97 27-1041): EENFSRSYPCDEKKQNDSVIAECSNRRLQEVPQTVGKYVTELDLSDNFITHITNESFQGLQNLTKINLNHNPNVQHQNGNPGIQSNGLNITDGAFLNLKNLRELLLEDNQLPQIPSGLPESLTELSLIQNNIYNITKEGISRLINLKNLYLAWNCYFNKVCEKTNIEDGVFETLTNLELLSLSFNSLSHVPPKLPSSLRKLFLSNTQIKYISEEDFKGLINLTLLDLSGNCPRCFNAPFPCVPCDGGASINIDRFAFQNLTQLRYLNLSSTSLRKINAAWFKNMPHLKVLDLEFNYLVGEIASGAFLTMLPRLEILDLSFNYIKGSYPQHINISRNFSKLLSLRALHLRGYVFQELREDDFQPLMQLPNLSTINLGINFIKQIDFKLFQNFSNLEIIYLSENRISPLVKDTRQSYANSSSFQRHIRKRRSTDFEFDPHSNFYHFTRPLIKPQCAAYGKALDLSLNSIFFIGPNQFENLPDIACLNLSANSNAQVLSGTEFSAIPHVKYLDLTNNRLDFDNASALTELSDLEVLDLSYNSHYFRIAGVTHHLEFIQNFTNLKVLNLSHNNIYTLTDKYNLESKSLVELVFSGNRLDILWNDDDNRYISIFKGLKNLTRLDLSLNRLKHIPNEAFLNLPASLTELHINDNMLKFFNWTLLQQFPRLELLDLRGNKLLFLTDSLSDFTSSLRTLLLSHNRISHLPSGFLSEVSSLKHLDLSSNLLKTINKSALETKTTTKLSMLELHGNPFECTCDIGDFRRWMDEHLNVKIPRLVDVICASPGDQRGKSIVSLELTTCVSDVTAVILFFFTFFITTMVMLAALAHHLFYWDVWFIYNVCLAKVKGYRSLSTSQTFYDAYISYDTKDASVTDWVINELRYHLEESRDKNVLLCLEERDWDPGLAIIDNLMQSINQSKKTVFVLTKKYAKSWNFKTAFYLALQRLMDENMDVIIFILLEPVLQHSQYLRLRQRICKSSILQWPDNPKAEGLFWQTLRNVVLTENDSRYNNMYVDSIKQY
# experimental.details: HEK-293 hTLR8 transfectant NF-κB SEAP reporter antagonist assay
# Type: cell-based
# setup.conditions: IC50, nM, vs. VTX-378 1 μM, agonist VTX-378 at 1 μM
property.measured: IC50

The cases that follow already have their IC50 on record.
record.smiles: CC(C)OC(=O)C1=Cc2cc(-c3ccc(C(=O)N4CCCC4)cc3)ccc2N=C(N)C1
IC50: < 1000 nM
--
record.smiles: COC(=O)C1=Cc2cc(-c3ccc(C(=O)N4CCCC4)cc3)ccc2N=C(N)C1
IC50: < 1000 nM

For every item below, please supply its IC50.
1. CCOC(=O)C1=Cc2cc(-c3ccc(C(=O)N4CCCC4)cc3)ccc2-n2cnnc2C1
2. CN(C)C(=O)C1=Cc2cc(-c3ccc(C(=O)N4CCCC4)cc3)ccc2N=C(N)C1
3. CCCN(CCC)C(=O)C1=Cc2cc(-c3ccc(C(=O)N4CCCC4)cc3)ccc2N=C(N)C1
4. CCOC(=O)C1=Cc2cc(-c3ccc(C(=O)N4CCCC4)cc3)ccc2N2CCN=C2C1
5. CCOC(=O)N1CC(N)=Nc2ccc(-c3ccc(C(=O)N4CCCC4)cc3)cc2C1
6. CCOC(=O)C1=Cc2cc(-c3ccc(C(=O)N4CCCC4)cc3)ccc2N=C(NN)C1

≥ 10000 nM
< 1000 nM
< 1000 nM
≥ 10000 nM
≥ 10000 nM
≥ 10000 nM

# credit: patent US20140088085A1
